Please provide measured abundance fitness for the entries that follow.
B1: Far upstream element-binding protein 1, residues 98 to 169; numbered along this chain, Q96AE4 (parent)
chain: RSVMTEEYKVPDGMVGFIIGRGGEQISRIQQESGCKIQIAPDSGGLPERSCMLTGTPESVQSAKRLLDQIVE

Variants of: B1
Assay Text: abundance fitness (aPCA) (normalised: wild type 0, dead -1); higher = more abundant; growth selection in yeast, the domain comes from the species named
Test Conditions: Homo sapiens
Lab note: jot down the number only; don't add units.

Query :: Please supply the value of reported abundance fitness for the item `I19Q`
Result :: -0.03

Query :: Please look at this variant and report its abundance fitness: `P47L`
Result :: -0.02

Query :: For the variant `F17Q` , give its measured abundance fitness value.
Result :: 0.044

Query :: Please report the measured abundance fitness for `E32K`
Result :: -0.077

Query :: Quote abundance fitness reported for `R65V` please.
Result :: -0.002

Query :: Look up and report measured abundance fitness for this entry: `S59D`
Result :: -0.053

Query :: Provide one value: measured abundance fitness of `P11G`
Result :: -0.138

Query :: State, in one line, measured abundance fitness of `Q61Y`
Result :: -0.049

Query :: Identify the reported abundance fitness for the following entry. `R49C`
Result :: -0.183

Query :: Let me know recorded abundance fitness for `V60L` , thanks.
Result :: -0.009

Query :: Find the measured abundance fitness of `S43N` and report it.
Result :: -0.043

Query :: Please supply the value of reported abundance fitness for the item `S27M`
Result :: -0.025

Query :: Query abundance fitness for `S33H`
Result :: -0.308

Query :: For the variant `Q31A` , report abundance fitness.
Result :: -0.026

Query :: Specify measured abundance fitness for `Q31T` .
Result :: -0.024

Query :: Look up and state reported abundance fitness for `I70G`
Result :: -0.11

Query :: Please give measured abundance fitness of the following entry: `M4T`
Result :: -0.06
